# Test system: Human coronavirus 229E
# experiment-description: Antiviral activity against hCoV-229E infected in human MRC5 cells incubated for 1 hr by crystal violet staining based plaque assay
# Type: functional, organism-based
# condition: MRC5, 1 h
assay-metric: EC50 (nM)
Numbers only; they are read as nM.

For COC(=O)[C@H]1[C@@H](O)[C@@]2(O)c3c(OC)cc(O[C@@H]4O[C@@H]([C@H](O)CO)CO[C@H]4OC)cc3O[C@@]2(c2ccc(OC)cc2)[C@@H]1c1ccccc1 , what is its reported EC50? 3
